B1: Azoarcus group I ribozyme (parent)
chain: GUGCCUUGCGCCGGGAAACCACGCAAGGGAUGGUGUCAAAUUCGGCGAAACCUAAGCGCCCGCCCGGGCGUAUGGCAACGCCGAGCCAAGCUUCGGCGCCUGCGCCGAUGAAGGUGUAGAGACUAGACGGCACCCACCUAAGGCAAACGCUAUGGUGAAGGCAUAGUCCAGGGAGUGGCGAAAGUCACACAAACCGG

Variants of: B1
Assay Comment: reverse-splicing fitness (ratio to wild type); higher = more active; in vitro selection; Mg2+ level not given
The following variants are listed with their measured reverse-splicing fitness values.

# count of solved cases: 2
Which reverse-splicing fitness reading was recorded for the variant C82G A111C A145G C150U C169U U176G ?
0.0071

Which reverse-splicing fitness reading was recorded for the variant C82G A111U A120U A145C C150A C169G U176G ?
0.00199

Next:
Which reverse-splicing fitness reading was recorded for the variant C82G A145G C150U U176A ?
0.264

Which reverse-splicing fitness reading was recorded for the variant C82A A111C A120C A145C C169A U176A ?
0.0158

Which reverse-splicing fitness reading was recorded for the variant A111U A120U A145G C169A U176A ?
0.00212

Which reverse-splicing fitness reading was recorded for the variant C82U A111C A120G A145U U176G ?
0.00452

Which reverse-splicing fitness reading was recorded for the variant C82A A120U A145G C150G C169U U176A ?
0.00865

Which reverse-splicing fitness reading was recorded for the variant C82G A111U A120C C150U C169A U176A ?
0.0158

Which reverse-splicing fitness reading was recorded for the variant A111C A120G A145G C150A C169G U176C ?
0.0342

Which reverse-splicing fitness reading was recorded for the variant C82U C150U C169A U176A ?
0.0154

Which reverse-splicing fitness reading was recorded for the variant C82G A111U C150G C169G U176C ?
0.00587
